settings: buffer; pH 7.4; 200.0 µM
In this section we review reported solubility kinetic values for a set of compounds.
Give just the numeric value; µg/mL need not be written.

Ask | Can you share its solubility kinetic? I mean this compound: `CC(C)(C)c1ccccc1NC(=O)CN1C(=O)NC2(CCCC2)C1=O`
Reply | 6.1

Ask | Entry CC1CC(C)CN(C(=O)c2ccc(S(=O)(=O)N3CCCCC3)cc2)C1 (stereo unspecified) please
Reply | 5.1

Now, please, on to the next compound.
Ask | What value of solubility kinetic has been recorded for this entry: `CN1CCC(N(C)C(=O)c2ccccc2F)CC1.Cl`
Reply | 42.9

====

conditions: buffer; pH 7.4; 200.0 µM
Items are presented alongside their recorded solubility kinetic.
Please give a number only; it is taken to be in µg/mL.

In the examples that follow, each entry is paired with its recorded solubility kinetic.
Ask | Entry under review: `O=[N+]([O-])c1cc(-c2ncccn2)c([N+](=O)[O-])s1` . Reported solubility kinetic?
Reply | 34.8

Ask | Similarly, `Cc1cnc(=O)[nH]c1SCC(=O)Nc1nccs1` ?
Reply | 31

Ask | Also, CC1SCC(=NOCc2ccccc2)CS1 (configuration not stated) please.
Reply | 11.5

***
Ask | # lookup: solubility kinetic of `Nc1ccc2nc(NC(=O)C3CCCCC3)sc2c1`
Reply | 30.2

Ask | Consider next the molecule `CCCCN(CC)C(=O)c1cc2c(=O)n3cccc(C)c3nc2s1` in the same way.
Reply | 44.5

====

conditions: buffer; pH 7.4; 200.0 µM
solubility kinetic of 5 µg/mL or higher: t. Under 5 µg/mL: f.

See these solved cases before continuing.
Ask | Identify whether the reported solubility kinetic of the following molecule is 5 µg/mL or greater: `C=CCN(CC(=O)O)S(=O)(=O)c1ccccc1C(F)(F)F`
Reply | t

Ask | Quick one: `COc1ccc(CCNC(=O)CN2C(=O)NC(c3ccccc3)(c3ccccc3)C2=O)cc1`
Reply | t

Ask | Now consider `O=C(O)c1ccc(NC(=O)c2ccccc2NC(=O)c2cccc(F)c2)cc1` .
Reply | t

Ask | // repeat for `COc1ccc(CNC(=O)CCn2c(=O)[nH]c3ccccc3c2=O)cc1` and report
Reply | f

Shifting focus to the molecule that follows.
Ask | Reported solubility kinetic reaches at least 5 µg/mL for `CCCNC(=O)c1cc(-c2ccc3c(c2)OCO3)on1` ?
Reply | f

====

conditions: buffer; pH 7.4; 200.0 µM
The compounds listed here are annotated with their solubility kinetic.
Give the number; µg/mL is assumed, so skip it.

Some solved entries appear below for comparison.
Ask | Could you tell me which solubility kinetic is on file for `O=C(COC(=O)c1ccncc1)c1ccc(Cl)c(Cl)c1` ?
Reply | 39.8

Ask | Now this one: `C/C(=C\C(=O)c1cccnc1)Nc1ccc(C(=O)O)cc1`
Reply | 31.3

Ask | Do the same for `COc1ccc(C(C)=O)cc1CSc1ccccn1` please
Reply | 37.7

---
Ask | Name the recorded solubility kinetic for `Nc1c(C(=O)OCC(=O)Nc2ccccc2Br)[nH]c(=O)[nH]c1=O` .
Reply | 25.6

Ask | Next compound: O=C1CC(c2ccccc2)Cc2nc(NC3CC3)ncc21 (stereo not given)
Reply | 2.7

Ask | One more compound: `COc1ccc(C(=O)N2CCN(c3ncccn3)CC2)cc1[N+](=O)[O-]`
Reply | 50.5

Ask | Again, but for Cc1ccc(OCC(=O)N2c3ccccc3CC2C)c([N+](=O)[O-])n1 (stereo not given)
Reply | 21.3

Ask | Also `O=C(CSc1ccccc1)NC1=NCCS1` , if possible.
Reply | 32.4

Ask | Now try `COC(=O)c1ccc(NC(=O)Cn2c([N+](=O)[O-])cnc2C)cc1` .
Reply | 28.8

Ask | Now this one: `CCN(CCCl)Cc1ccccc1Br.Cl`
Reply | 42.1

Ask | Now the same for `COc1ccccc1Cn1c(C)nc2ccccc21`
Reply | 37

Ask | What do we get for `CCN1CCN(Cc2c3ccccc3cc3ccccc23)CC1` ?
Reply | 27.9

Ask | // repeat for O=C1CSC(c2cccnc2)N1Cc1cccnc1 (stereo not given) and report
Reply | 40.2

====

settings: buffer; pH 7.4; 200.0 µM
Given measured solubility kinetic, output YES if it is greater than or equal to 0.008 mg/mL and NO if not.

Example results:
Ask | Exam item: decide whether the reported solubility kinetic for `CC1CCN(C(=S)NC(=O)c2ccc(F)cc2)CC1` is at least 0.008 mg/mL.
Reply | YES

Ask | Same question, `Clc1cccc(Cl)c1C1Nc2cccc3cccc(c23)N1` this time
Reply | NO

Ask | Same question, COCC(=O)N1CCCC(N(C)CCc2ccc(OC)c(OC)c2)C1 (stereo unspecified) this time
Reply | YES

Ask | And then `CCOC(=O)COc1ccc2c(c1)c(C(C)=O)c(C)n2Cc1ccccc1` , what is it?
Reply | NO

Ask | // same read-out, input: `Clc1ccc(OCC#CCN2CCOCC2)cc1.O=C(O)C(=O)O`
Reply | YES

Ask | One more compound: `COc1cc(NC(=S)Nc2cccnc2)cc(OC)c1`
Reply | NO

Continuing:
Ask | Is solubility kinetic at least 0.008 mg/mL? Consider `Cc1ccc(C)c(NC(=O)CCC(=O)N/N=C/c2cccnc2)c1`
Reply | YES

Ask | Ok, now Cc1c(C)n(CC(O)CN(CCO)CCO)c2ccccc12.Cl (stereo unspecified)
Reply | YES

Ask | Would you kindly repeat that for CN1C2CCC1CC(NC(=O)c1ccc(Cl)cc1)C2 (stereo unspecified) ?
Reply | YES

Ask | Ok, now `Cc1ccc([N+](=O)[O-])cc1S(=O)(=O)NCCc1cn2ccccc2n1`
Reply | YES

Ask | Next compound: `CC(C)Oc1ccccc1/C=N/NC(=O)C1CC1`
Reply | YES

Ask | `C(/C=C/c1ccccn1)=C\c1ccccc1` , same question.
Reply | NO

Ask | Again, but for `O=Cc1ccccc1OCCCOc1cccc2cccnc12`
Reply | YES

Ask | Likewise for COc1ccc(Cl)cc1NC(=O)CN1c2ccccc2CC1C (stereo unspecified) ?
Reply | NO

Ask | What do you have for CC(=O)C1=C(O)C(=O)N(Cc2ccco2)C1c1ccccc1F (stereo unspecified) ?
Reply | YES

Ask | Let us now turn to `O=C(COC(=O)c1cc(Br)ccc1Cl)NC1CCCC1`
Reply | NO

Ask | Check `O=C(Nc1ccncc1)Nc1cccc(F)c1` too.
Reply | YES

Ask | Also need `N#Cc1ccsc1NC(=O)C1=COCCO1` , thanks.
Reply | YES

====

settings: buffer; pH 7.4; 200.0 µM
REPORTED_PROPERTY: solubility kinetic

Ask | So what does the record say about solubility kinetic for `CCCCCn1c(=O)c(C(=O)Nc2cccc(C)c2)c(O)c2ccccc21` ?
Reply | < 0.4 µg/mL

Ask | Same question for `COc1ccccc1Cn1c(=O)oc2ccc(C)cc21` please.
Reply | 2.9 µg/mL

Ask | Also `CC(=O)N(C)c1ccc(N=C2C(=O)Nc3ccccc32)cc1` ?
Reply | > 44 µg/mL

Ask | What would you report for `O=C(NC(=S)N1CCCCCC1)c1ccccc1` ?
Reply | > 39.4 µg/mL

Ask | `Cc1ccc(N(CC(=O)N2CCCC2)S(C)(=O)=O)cc1C` ?
Reply | > 46.6 µg/mL

Shift focus to the following entry.
Ask | solubility kinetic for `CC(=O)c1ccc(NC(=O)c2ccccc2-c2ccccc2C(=O)O)cc1` ?
Reply | > 53.9 µg/mL

====

conditions: buffer; pH 7.4; 200.0 µM
Measured log10(solubility kinetic) of individual entries
Please note: log10 values; quantity solubility kinetic; unit µg/mL.

Below, each entry is followed by its recorded log10(solubility kinetic) result.
Ask | Could you share which log10(solubility kinetic) value was measured for `C=Cn1ccnc1P(=S)(c1ccc(Cl)cc1)c1nccn1C=C` ?
Reply | 1.67

Ask | How about this molecule: `CC1=C/C(=N\OS(=O)(=O)c2ccccc2)C=CC1=O`
Reply | 0.90

Ask | Input `CCc1ccccc1S(=O)(=O)c1c(C)cc(C)nc1Cl`
Reply | 1.39

Continuing:
Ask | For the molecule shown here, `CCOC(=O)CNC(=S)N(Cc1ccccc1)Cc1ccccc1F` , give the reported log10(solubility kinetic).
Reply | 1.07

Ask | Consider next the molecule `COc1ccc(/C=C/C(=O)OCC(=O)N(C)CC(=O)Nc2ccc(C)cc2)c(OC)c1` in the same way.
Reply | 0.64

Ask | Similarly, `c1cncc(-c2nc3ccccc3s2)c1` ?
Reply | 1.36

Ask | Repeat for the following molecule: `COc1ccc2nc(-c3ccccn3)[nH]c2c1`
Reply | 1.39

Ask | And then `Cc1ccc2[nH]c(C)c(CCNCc3cccnc3)c2c1.Cl` , what is it?
Reply | 1.67

Ask | Repeat for the following molecule: Cc1cccc(OC(C)C(=O)Nc2ccc(S(=O)(=O)N3CCCC3)cc2)c1 (centres undefined)
Reply | 1.21

Ask | Now the molecule `COc1ccc(OC)c(/C=C2\SC(N3CCCCC3)=NC2=O)c1`
Reply | 0.73

Ask | Please do the same for `O=C1NC(=S)N(c2ccccc2)C(=O)/C1=C/c1ccco1` as well.
Reply | 1.63

Ask | Also, `CCOc1ccccc1NC(=O)CNC(=O)Cc1ccccc1` please.
Reply | 1.67
